# experimental_target: HLA-DR DRB1*0401 (human)
# protocol_summary: radiolabeled-peptide inhibition, purified HLA-DR
measured_parameter: IC50

> print(dat)
                        binder  measured.parameter  measured.result
1  GHCWGPGPTQCVNCS [9019.0061]                IC50          3.74 µM
